Assay: Acute toxicity in iv dosed mouse
Conditions: in vivo
measured endpoint: LD50 (mg/kg)
Numbers only, in mg/kg.

# count of solved cases: 3
**Query** Any idea what its LD50 is? The compound is CC(C)NCC(O)c1sc(Cl)c(Cl)c1Cl (racemic)
**Result** 35

**Query** Query: LD50; subject: CC(C)(C)NCC(O)c1sccc1Br (racemic)
**Result** 25

**Query** Fill in: LD50 of CC(C)NCC(O)c1ccc(Br)s1.Cl (racemic) is ___
**Result** 45

Lab note: next compound to report on.
**Query** Which LD50 value is on record for CC(C)(C)NCC(O)c1sc(Cl)c(Cl)c1Cl (racemic) ?
**Result** 40

The reported numbers originate from ChEMBL document CHEMBL3244194.
